Tested on: Plasmodium falciparum
Assay: Antiplasmodial activity against […] Plasmodium falciparum NF54 early gametocytes transfected with GFP-Luc […] at 5 uM incubated for 48 hrs by microscopy based luciferase reporter gene assay relative to control
Format: functional
Class boundaries, taken from values of inhibition at 5 µM, are as follows: bin A = under 40%, bin B = from 40% up to 90%, bin C = 90% and over

| structureSmilesString | qualitativeLabel |
| --- | --- |
| Cc1cc(CNC(C)(C)C)c(O)c(Nc2nc3cc(F)c(F)cc3[nH]2)c1 | bin A |
| Cc1cc(CNC(C)(C)C)c(O)c(Nc2nc3c(Cl)cc(Cl)cc3[nH]2)c1 | bin A |
| CCN(CC)Cc1ccc(C)c(Nc2nc3ccccc3n2Cc2ccc(C#N)cc2)c1O | bin C |
| CC(C)(C)NCc1cc(Cl)cc(Nc2nc3cc(F)c(F)cc3n2Cc2ccc(C(F)(F)F)cc2)c1O | bin B |
| Cc1cc(CNC(C)(C)C)c(O)c(Nc2nc3ccccc3[nH]2)c1 | bin B |
| CCN(CC)Cc1cc(C)cc(Nc2nc3ccccc3n2Cc2ccc(C(F)(F)F)cc2)c1O | bin C |
| CCN(CC)Cc1cccc(Nc2nc3ccccc3[nH]2)c1O | bin A |
| CCN(CC)Cc1ccc(C)c(Nc2nc3ccccc3[nH]2)c1O | bin A |
| CCN(CC)Cc1cc(Nc2nc3ccccc3n2Cc2ccc(C(F)(F)F)cc2)ccc1O | bin B |
| Cc1cc(CN)c(O)c(Nc2nc3ccccc3n2Cc2ccc(C(F)(F)F)cc2)c1 | bin A |
| CCNCc1cc(Cl)cc(Nc2nc3cc(F)c(F)cc3[nH]2)c1O | bin A |
| CCN(CC)Cc1cc(C)cc(Nc2nc3ccccc3[nH]2)c1O | bin B |
| CCN(CC)Cc1cccc(Nc2nc3ccccc3n2Cc2ccc(C#N)cc2)c1O | bin B |
| CCN(CC)Cc1cccc(Nc2nc3ccccc3n2Cc2ccc(C(F)(F)F)cc2)c1O | bin C |
| CC(C)(C)NCc1cc(Cl)cc(Nc2nc3cc(F)c(F)cc3[nH]2)c1O | bin A |
| CCNCc1cc(Cl)cc(Nc2nc3ccccc3[nH]2)c1O | bin A |
| CCN(CC)Cc1cc(C)cc(Nc2nc3ccccc3n2Cc2ccc(C#N)cc2)c1O | bin C |
| CCN(CC)Cc1cc(Nc2nc3ccccc3[nH]2)ccc1O | bin A |
| CC(C)(C)NCc1cc(Cl)cc(Nc2nc3ccccc3[nH]2)c1O | bin A |
| CCN(CC)Cc1c(Cl)ccc(Nc2nc3ccccc3n2Cc2ccc(C(F)(F)F)cc2)c1O | bin B |
| CCN(CC)Cc1cc(Nc2nc3ccccc3n2Cc2ccc(F)cc2)ccc1O | bin B |
| CCNCc1cc(C)cc(Nc2nc3ccccc3n2Cc2ccc(C(F)(F)F)cc2)c1O | bin C |
| CCN(CC)Cc1cc(C)cc(Nc2nc3ccccc3n2Cc2ccc(F)cc2)c1O | bin C |
| CCN(CC)Cc1ccc(Nc2nc3ccccc3n2Cc2ccc(F)cc2)cc1O | bin A |
| CC(C)(C)NCc1cc(C(C)(C)C)cc(Nc2nc3ccccc3[nH]2)c1O | bin B |
| CC(C)(C)NCc1cc(C(C)(C)C)cc(Nc2nc3cc(F)c(F)cc3[nH]2)c1O | bin A |
| CCNCc1cc(C)cc(Nc2nc3cc(F)c(F)cc3n2Cc2ccc(C(F)(F)F)cc2)c1O | bin C |
| CCN(CC)Cc1cc(Nc2nc3ccccc3n2Cc2ccc(C#N)cc2)ccc1O | bin A |
| CCN(CC)Cc1ccc(C)c(Nc2nc3ccccc3n2Cc2ccc(F)cc2)c1O | bin A |
| CCN(CC)Cc1ccc(Nc2nc3ccccc3n2Cc2ccc(C#N)cc2)cc1O | bin B |
| Cc1cc(CNC(C)(C)C)c(O)c(Nc2nc3ccccc3n2Cc2ccc(C(F)(F)F)cc2)c1 | bin C |
| Cc1cc(CNC(C)(C)C)c(O)c(Nc2nc3cc(F)c(F)cc3n2Cc2ccc(C(F)(F)F)cc2)c1 | bin C |

* * *

Assay: Resistance index, ratio of IC50 for antimalarial activity against asexual blood stage multi drug-resistant Plasmodium falciparum K1 to IC50 for antimalarial activity against asexual blood stage drug-sensitive Plasmodium falciparum NF54
Assay type: functional
Just a reminder that ties go to FALSE: only Ratio IC50 strictly below 0.4 counts as TRUE.

| structureSmilesString | qualitativeLabel |
| --- | --- |
| CCN(CC)Cc1cc(Nc2nc3ccccc3n2Cc2ccc(F)cc2)ccc1O | FALSE |
| CCN(CC)Cc1ccc(Nc2nc3ccccc3n2Cc2ccc(F)cc2)cc1O | FALSE |
| CC(C)(C)NCc1cc(Cl)cc(Nc2nc3cc(F)c(F)cc3n2Cc2ccc(C(F)(F)F)cc2)c1O | FALSE |
| CCN(CC)Cc1ccc(C)c(Nc2nc3ccccc3n2Cc2ccc(C(F)(F)F)cc2)c1O | TRUE |

* * *

Assay: Volume of distribution in Balb/c mouse at 3 mg/kg, iv measured up to 24 hrs by LC-MS/MS analysis
Type: ADME, organism-based
Conditions: in vivo
Documented Vd across a set of molecules
endpointLabel: Vd (L/kg)

| structureSmilesString | endpointLabel | endpointResult |
| --- | --- | --- |
| CCNCc1cc(Cl)cc(Nc2nc3cc(F)c(F)cc3[nH]2)c1O | Vd | 96 |
| CCNCc1cc(Cl)cc(Nc2nc3cc(F)c(F)cc3n2Cc2ccc(C(F)(F)F)cc2)c1O | Vd | 6.9 |

* * *

Test system: Plasmodium falciparum
Assay: Antimalarial activity against asexual blood stage multi drug-resistant Plasmodium falciparum K1 infected in erythrocytes assessed as reduction in parasitemia incubated up to 72 hrs by [3H]hypoxanthine incorporation assay
Format: functional, organism-based
endpointLabel: log10 IC50 (log10 of the value in µM)

| structureSmilesString | log10 IC50 |
| --- | --- |
| CCN(CC)Cc1cccc(Nc2nc3ccccc3n2Cc2ccc(F)cc2)c1O | -0.74 |
| CCN(CC)Cc1ccc(Nc2nc3ccccc3n2Cc2ccc(C#N)cc2)cc1O | -0.12 |
| Cc1cc(CNC(C)(C)C)c(O)c(Nc2nc3cc(F)c(F)cc3[nH]2)c1 | -0.08 |
| CCN(CC)Cc1cccc(Nc2nc3ccccc3n2Cc2ccc(C(F)(F)F)cc2)c1O | -0.89 |
| CCN(CC)Cc1ccc(Nc2nc3ccccc3n2Cc2ccc(F)cc2)cc1O | 0.11 |
| CCN(CC)Cc1cc(Nc2nc3ccccc3n2Cc2ccc(F)cc2)ccc1O | 0.29 |
| CCNCc1cc(Cl)cc(Nc2nc3cc(F)c(F)cc3n2Cc2ccc(C(F)(F)F)cc2)c1O | -1.10 |
| CCN(CC)Cc1cc(C)cc(Nc2nc3ccccc3n2Cc2ccc(F)cc2)c1O | -0.68 |
| CC(C)(C)NCc1cc(C(C)(C)C)cc(Nc2nc3ccccc3[nH]2)c1O | -0.60 |
| CCNCc1cc(Cl)cc(Nc2nc3cc(F)c(F)cc3[nH]2)c1O | -0.11 |

* * *

Test: Resistance index, ratio of IC50 for antimalarial activity against asexual blood stage multi drug-resistant Plasmodium falciparum K1 to IC50 for antimalarial activity against asexual blood stage drug-sensitive Plasmodium falciparum NF54
Type: functional
endpointLabel: Ratio IC50

| structureSmilesString | endpointLabel | endpointResult |
| --- | --- | --- |
| CCN(CC)Cc1ccc(C)c(Nc2nc3ccccc3n2Cc2ccc(F)cc2)c1O | Ratio IC50 | 0.58 |
| CCN(CC)Cc1ccc(Nc2nc3ccccc3n2Cc2ccc(C#N)cc2)cc1O | Ratio IC50 | 2.05 |
| CCN(CC)Cc1cccc(Nc2nc3ccccc3[nH]2)c1O | Ratio IC50 | 1.38 |
| CCN(CC)Cc1cc(Cl)cc(Nc2nc3ccccc3n2Cc2ccc(C(F)(F)F)cc2)c1O | Ratio IC50 | 0.33 |

* * *

System: Plasmodium falciparum
Experiment: Antiplasmodial activity against […] Plasmodium falciparum NF54 late gametocytes transfected with GFP-Luc […] incubated for 48 hrs by microscopy based luciferase reporter gene assay relative to control
Assay type: functional, organism-based
Conditions: NF54, 48 h

| structureSmilesString | resultUnit | signQualifier | IC50 |
| --- | --- | --- | --- |
| CCNCc1cc(C)cc(Nc2nc3cc(F)c(F)cc3n2Cc2ccc(C(F)(F)F)cc2)c1O | nM | = | 2330 |
| CCNCc1cc(Cl)cc(Nc2nc3ccccc3n2Cc2ccc(C(F)(F)F)cc2)c1O | nM | > | 5000 |
| CCN(CC)Cc1cc(Cl)cc(Nc2nc3ccccc3n2Cc2ccc(C(F)(F)F)cc2)c1O | nM | = | 1900 |
| CCN(CC)Cc1cc(F)cc(Nc2nc3ccccc3n2Cc2ccc(C(F)(F)F)cc2)c1O | nM | > | 5000 |
| CCNCc1cc(Cl)cc(Nc2nc3cc(F)c(F)cc3n2Cc2ccc(C(F)(F)F)cc2)c1O | nM | > | 5000 |
